Test system: Escherichia coli TOP10
measurement notes: shrunken log2 fold change of peptide-encoding DNA abundance (4.5 h post-induction vs induction); higher = less antimicrobial activity (less host growth inhibition)
applied conditions: time post-induction: 4.5 h; library: site-saturation at positions 5, 18, 19, 20
measured parameter: shrunken log2 fold change
Give bare numbers.

For orientation, consider the following solved cases.
# biopolymer sequence, measured parameter, meas value
rows = [
    ("RRIRKRPPRLPRPRPRPWHHPRP", "shrunken log2 fold change", -0.197),
    ("RRIRQRPPRLPRPRPRPIEIPRP", "shrunken log2 fold change", -0.0062),
    ("RRIRKRPPRLPRPRPRPDHPPRP", "shrunken log2 fold change", 0.0127),
    ("RRIRNRPPRLPRPRPRPQSMPRP", "shrunken log2 fold change", -0.567),
]

Take each entry in turn and give its shrunken log2 fold change.
1. RRIRTRPPRLPRPRPRPIMAPRP
2. RRIRMRPPRLPRPRPRPMSIPRP

-- reply
[-0.281, -0.0109]

###

System: Escherichia coli TOP10
measurement notes: shrunken log2 fold change of peptide-encoding DNA abundance (4.5 h post-induction vs induction); higher = less antimicrobial activity (less host growth inhibition)
applied conditions: time post-induction: 4.5 h; library: site-saturation at positions 5, 18, 19, 20
measured parameter: shrunken log2 fold change
Answers are plain numbers.

These solved cases illustrate the format of a correct answer.
# biopolymer sequence, measured parameter, meas value
data = [
    ("RRIRIRPPRLPRPRPRPNWYPRP", "shrunken log2 fold change", -0.519),
    ("RRIRKRPPRLPRPRPRPAWDPRP", "shrunken log2 fold change", 0.497),
    ("RRIRTRPPRLPRPRPRPEHNPRP", "shrunken log2 fold change", -0.353),
    ("RRIRKRPPRLPRPRPRPRHQPRP", "shrunken log2 fold change", 1.82),
    ("RRIRCRPPRLPRPRPRPQLGPRP", "shrunken log2 fold change", -0.00405),
    ("RRIRNRPPRLPRPRPRPPSVPRP", "shrunken log2 fold change", 0.0886),
]

# per-item lookup of shrunken log2 fold change; items listed below
1. RRIRSRPPRLPRPRPRPSKAPRP
2. RRIRHRPPRLPRPRPRPQSRPRP
3. RRIRCRPPRLPRPRPRPAQHPRP

-- reply
-0.0678
-0.0223
0.0537

Go through the list and state shrunken log2 fold change for each entry.
1. RRIRFRPPRLPRPRPRPQGYPRP
2. RRIRKRPPRLPRPRPRPMHCPRP
3. RRIRNRPPRLPRPRPRPCDVPRP

-- reply
-0.249
3.88
0.0235

###

System: Escherichia coli TOP10
measurement notes: shrunken log2 fold change of peptide-encoding DNA abundance (4.5 h post-induction vs induction); higher = less antimicrobial activity (less host growth inhibition)
applied conditions: time post-induction: 4.5 h; library: site-saturation at positions 5, 18, 19, 20
measured parameter: shrunken log2 fold change
One number for each entry.

# biopolymer sequence, shrunken log2 fold change
measured = [
    ("RRIRDRPPRLPRPRPRPLTIPRP", -0.257),
    ("RRIRRRPPRLPRPRPRPTNWPRP", 0.37),
    ("RRIRRRPPRLPRPRPRPANFPRP", -0.0416),
    ("RRIRKRPPRLPRPRPRPEGMPRP", 0.194),
    ("RRIRWRPPRLPRPRPRPHRLPRP", -0.0123),
]

Below are some sequences; for each one, tell me its shrunken log2 fold change.
1. RRIRARPPRLPRPRPRPGWSPRP
2. RRIRWRPPRLPRPRPRPVPFPRP

-- reply
[0.57, 0.122]

###

Test system: Escherichia coli TOP10
measurement notes: shrunken log2 fold change of peptide-encoding DNA abundance (4.5 h post-induction vs induction); higher = less antimicrobial activity (less host growth inhibition)
applied conditions: time post-induction: 4.5 h; library: site-saturation at positions 5, 18, 19, 20
measured parameter: shrunken log2 fold change
Give bare numbers.

// each sequence listed below needs its shrunken log2 fold change
1. RRIRTRPPRLPRPRPRPDNNPRP
2. RRIRNRPPRLPRPRPRPSIAPRP
3. RRIRDRPPRLPRPRPRPQFYPRP

-- reply
1. -0.48
2. -0.0838
3. -0.129

For every listed record, write down its shrunken log2 fold change.
1. RRIRRRPPRLPRPRPRPPETPRP
2. RRIRWRPPRLPRPRPRPQLRPRP
3. RRIRARPPRLPRPRPRPDCNPRP

-- reply
1: 0.831; 2: 0.0178; 3: 0.606

Batch: shrunken log2 fold change for all items listed.
1. RRIRQRPPRLPRPRPRPWAIPRP
2. RRIRARPPRLPRPRPRPYIIPRP
3. RRIRRRPPRLPRPRPRPQCFPRP
4. RRIRARPPRLPRPRPRPKLYPRP

-- reply
1. 0.0485
2. -0.445
3. 0.212
4. 0.0318

Hi, could you look up shrunken log2 fold change for each item in my list?
1. RRIRQRPPRLPRPRPRPQGDPRP
2. RRIRPRPPRLPRPRPRPCAMPRP

-- reply
1: -0.00865; 2: 0.0848

Consider the following items and state reported shrunken log2 fold change for each.
1. RRIRYRPPRLPRPRPRPYNQPRP
2. RRIRYRPPRLPRPRPRPPEYPRP
3. RRIRGRPPRLPRPRPRPSFMPRP

-- reply
1: -0.922; 2: 0.0412; 3: 0.0373

# return shrunken log2 fold change for each item in the list
1. RRIRIRPPRLPRPRPRPQRAPRP
2. RRIRRRPPRLPRPRPRPTPAPRP
3. RRIRERPPRLPRPRPRPQHCPRP
4. RRIRVRPPRLPRPRPRPWEKPRP

-- reply
-0.249
1.55
-0.23
0.0403

I would be grateful if you could provide shrunken log2 fold change for each of the following entries.
1. RRIRHRPPRLPRPRPRPIETPRP
2. RRIRYRPPRLPRPRPRPMKQPRP
3. RRIRCRPPRLPRPRPRPGIWPRP
4. RRIRRRPPRLPRPRPRPERIPRP
5. RRIRFRPPRLPRPRPRPFWKPRP
6. RRIRQRPPRLPRPRPRPDYIPRP
7. RRIRSRPPRLPRPRPRPQWFPRP
8. RRIRLRPPRLPRPRPRPWCMPRP

-- reply
1: -0.00822; 2: -0.0304; 3: 0.485; 4: 0.0278; 5: -0.0963; 6: -0.0798; 7: -0.241; 8: -0.408

Kindly give each listed record's shrunken log2 fold change.
1. RRIRVRPPRLPRPRPRPYGMPRP
2. RRIRVRPPRLPRPRPRPWWIPRP
3. RRIRRRPPRLPRPRPRPERQPRP

-- reply
[-0.0584, -0.202, 0.522]

###

Tested on: Escherichia coli TOP10
measurement notes: shrunken log2 fold change of peptide-encoding DNA abundance (4.5 h post-induction vs induction); higher = less antimicrobial activity (less host growth inhibition)
applied conditions: time post-induction: 4.5 h; library: site-saturation at positions 5, 18, 19, 20
Criterion: shrunken log2 fold change meeting or surpassing -0.2. Met: MET. Not met: NOT MET.

Solved cases below.
# biopolymer sequence, category label
records = [
    ("RRIRPRPPRLPRPRPRPDWHPRP", "MET"),
    ("RRIRERPPRLPRPRPRPLFWPRP", "MET"),
    ("RRIRFRPPRLPRPRPRPAWQPRP", "MET"),
    ("RRIRYRPPRLPRPRPRPTKFPRP", "NOT MET"),
    ("RRIRPRPPRLPRPRPRPNFRPRP", "MET"),
    ("RRIRDRPPRLPRPRPRPEWYPRP", "MET"),
]

Now look at this one.
-- ask Would you say RRIRIRPPRLPRPRPRPSNEPRP shows shrunken log2 fold change at minimum -0.2?
-- reply NOT MET

###

Test system: Escherichia coli TOP10;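 further: peptides expressed intracellularly from a pBAD plasmid library in pooled LB shake-flask culture, induced with 0.3% L-arabinose, DNA abundance read by NGS, three biological replicates, DESeq2 with apeglm shrinkage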
measurement notes: shrunken log2 fold change of peptide-encoding DNA abundance (4.5 h post-induction vs induction); higher = less antimicrobial activity (less host growth inhibition)
applied conditions: time post-induction: 4.5 h; library: site-saturation at positions 5, 18, 19, 20
measured parameter: shrunken log2 fold change
Numbers only.

// worked examples, shrunken log2 fold change included
# biopolymer sequence, shrunken log2 fold change
measured = [
    ("RRIRERPPRLPRPRPRPHDAPRP", -0.437),
    ("RRIRNRPPRLPRPRPRPCSRPRP", -0.0877),
    ("RRIRCRPPRLPRPRPRPNYIPRP", -0.84),
    ("RRIRWRPPRLPRPRPRPVRVPRP", 0.214),
    ("RRIRHRPPRLPRPRPRPGFYPRP", -0.363),
]

Below are some sequences; for each one, tell me its shrunken log2 fold change.
1. RRIRQRPPRLPRPRPRPDECPRP
2. RRIRKRPPRLPRPRPRPKPCPRP
3. RRIRMRPPRLPRPRPRPPVMPRP
4. RRIRWRPPRLPRPRPRPYAHPRP
5. RRIRSRPPRLPRPRPRPHVSPRP

-- reply
0.0568
0.0204
0.616
-0.056
-0.0482

// input: 6 sequences below; output: shrunken log2 fold change for each
1. RRIRHRPPRLPRPRPRPYVWPRP
2. RRIRLRPPRLPRPRPRPNPLPRP
3. RRIRTRPPRLPRPRPRPFSAPRP
4. RRIRWRPPRLPRPRPRPMFFPRP
5. RRIRRRPPRLPRPRPRPKGHPRP
6. RRIRYRPPRLPRPRPRPVSTPRP

-- reply
0.0405
0.256
0.0716
0.111
0.127
-0.511
